tested.system: T1, recombinant protein phosphatase-1 catalytic subunit alpha (PP1cα) (UniProt P62136 1-330)
T1 construct: protein phosphatase-1 catalytic subunit, alpha isoform; recombinant; also called rPP1cα; recombinant PP1c; source: E. coli, purified from the bacterial lysate
T1 sequence (P62136 whole entry, canonical isoform): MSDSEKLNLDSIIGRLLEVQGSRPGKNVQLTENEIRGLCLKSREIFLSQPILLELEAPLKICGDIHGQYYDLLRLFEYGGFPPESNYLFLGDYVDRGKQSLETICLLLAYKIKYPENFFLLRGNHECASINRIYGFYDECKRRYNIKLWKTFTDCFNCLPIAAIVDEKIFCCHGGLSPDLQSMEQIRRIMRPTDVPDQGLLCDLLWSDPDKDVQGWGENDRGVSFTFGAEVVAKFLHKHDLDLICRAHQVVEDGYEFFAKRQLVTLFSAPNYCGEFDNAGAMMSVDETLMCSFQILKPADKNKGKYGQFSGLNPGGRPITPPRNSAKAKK
method: ITC; MicroCal ITC200; rPP1cα (0.5-2 µM) in the cell, peptide (5-20 µM) in the syringe, 19 injections of 2 µL; 25 mM Tris/HCl pH 8.0, 150 mM NaCl, 1 mM TCEP; 25 °C; one set of sites model
experimental.parameters: both partners purified
Where no end group is shown, it is not given here. [ ]: non-standard residue; d: D form. pT = C[C@@H](OP(=O)(O)O)[C@H](N)C(=O)O
readout.type: pKd
pKd is defined as minus the log10 of a concentration measured in mol/L.

query: Name the reported pKd value associated with the binder RQSRRS[pT]QGVTL (myosin phosphatase target subunit-1 (MYPT1), residues 690-701, phosphorylated at Thr696; no tags; also called R^690QSRRS(pT696)QGVTL^701; P-Thr-MYPT1^690−701; source: synthetic peptide, bought: Pepmic)
result: 6.41

Measured values drawn from paper PMC10003451 for this set.
